Just for reference, the nanobody polyreactivity screen of Harvey et al. (2022) is where these values come from.

Method notes: yeast display, Sf9 membrane polyspecificity reagent, FACS + sequencing; frameworks hold sequencing errors
Recorded metric: polyreactivity (PSR sort gate)

>>> meas_value("QVQLVESGGGLVQAGGSLRLSCAASGFTFDFYAMGWYRQAPGKERELVAAISKNDGTTYYADSVKGRFTISRDNAKNTVYLQMYSLKPVDTAVYYCAAESGYPVYTYVSSGDYWGQGTQVTVSS")
"low polyreactivity"
>>> meas_value("QVQLVESGGGLVQAGGSLRLSCAASGSIFRGYAMGWYRQAPGKERELVAAINWSGSSTYYADSVKGRFTISRDNAKNTVYLQMYSMKPEDSAVYYCALVYYNRNLGGDYWGQGTQVTVSS")
"low polyreactivity"
